In this section we review reported one-hybrid fitness for binding NBS DNA values for a set of variants.
B1: Caulobacter ParB omega fusion; a variant is named by its letters at X, in order, B8GW30 (parent)
chain: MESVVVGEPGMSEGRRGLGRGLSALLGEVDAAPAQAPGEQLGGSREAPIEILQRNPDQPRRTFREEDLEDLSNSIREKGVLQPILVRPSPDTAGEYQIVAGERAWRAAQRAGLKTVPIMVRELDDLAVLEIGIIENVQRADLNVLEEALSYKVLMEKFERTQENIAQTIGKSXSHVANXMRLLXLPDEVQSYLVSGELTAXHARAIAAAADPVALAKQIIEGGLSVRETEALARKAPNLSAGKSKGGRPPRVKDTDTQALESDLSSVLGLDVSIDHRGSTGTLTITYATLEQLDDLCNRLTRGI

Variants of: B1
Assay: one-hybrid fitness for binding NBS DNA (the Noc-binding site; scaled: cognate 1, non-cognate 0); higher = stronger binding
Settings: with NBS DNA site
Over roughly 81,000 sequences, “one-hybrid fitness for binding NBS DNA” has its median near -0.1; the highest 2% begin near 0.36. The full list was thinned out, with the highest values kept by preference.
Just the number, please, no unit after it.

RRTR | 0.75
RLTR | 0.443
QSIR | 0.336
QRHK | 0.432
RHTR | 0.459
QRSK | 0.396
QEKR | 0.285
QSKP | 0.229

Lab book: one-hybrid fitness for binding NBS DNA of `QCIR` noted as 0.476

The measured one-hybrid fitness for binding NBS DNA associated with `RKTR` reads 0.602

Record `QSKD` , field one-hybrid fitness for binding NBS DNA: 0.203

# one-hybrid fitness for binding NBS DNA (variant: `QKIR` ) is 0.37
